target: mouse Sortilin (mouse, UniProt Q6PHU5 74-825); assay: cell-based or functional assay
# if value of Percent reduction of Sortilin levels in N2A cells reaches 70%, tag Yes; if it stays below, tag No

Binder	Answer Label
anti-Sortilin antibody S-55 (antibody, V domains shown) VH: QVQLQESGPGLVKPSETLSLTCAVSGYSISSGYYWGWIRQPPGKGLEWIGSIYHSGSTYYNPSLKSRVTISVDTSKNQFSLKLSSVTAADTAVYYCARGRPELGWDKYFQHWGQGTLVTVSS VL: DIQMTQSPSSVSASVGDRVTITCRASQGISRWLAWYQQKPGKAPKLLIYAASSLQSGVPSRFSGSGSGTDFTLTISSLQPEDFATYYCQQANALPTFGGGTKVEIK	No
anti-Sortilin antibody S-26 (antibody, V domains shown) VH: EVQLVESGGGLVKPGGSLRLSCAASGFTFSSYSMNWVRQAPGKGLEWVSSISSSSSYIYYADSVKGRFTISRDNAKNSLYLQMNSLRAEDTAVYYCARDRLGRGYKWNWFDPWGQGTLVTVSS VL: DIQMTQSPSSVSASVGDRVTITCRASQGIDSWLAWYQQKPGKAPKLLIYAASSLQSGVPSRFSGSGSGTDFTLTISSLQPEDFATYYCQQGNSLPPITFGGGTKVEIK	No
anti-Sortilin antibody S-51 (antibody, V domains shown) VH: QVQLVESGGGVVQPGRSLRLSCAASGFTFSSYGMHWVRQAPGKGLEWVAVISYDGSNKYYADSVKGRFTISRDNSKNTLYLQMNSLRAEDTAVYYCAKGLEYYDSSRLYYPYYYYMDVWGKGTTVTVSS VL: EIVLTQSPATLSLSPGERATLSCRASQSVSSYLAWYQQKPGQAPRLLIYDASKRATGIPARFSGSGSGTDFTLTISSLEPEDFAVYYCQQRSNYPITFGGGTKVEIK	Yes
anti-Sortilin antibody S-19 (antibody, V domains shown) VH: QVQLVQSGAEVKKPGSSVKVSCKASGGTFSSYAISWVRQAPGQGLEWMGGIIPIFGTASYAQKFQGRVTITADESTSTAYMELSSLRSEDTAVYYCARESRIPGSGYYYYYGMDVWGQGTTVTVSS VL: DIQMTQSPSSLSASVGDRVTITCRASQSISSYLNWYQQKPGKAPKLLIYSASSLQSGVPSRFSGSGSGTDFTLTISSLQPEDFATYYCQQTDGKPPTFGGGTKVEIK	Yes
anti-Sortilin antibody S-18 (antibody, V domains shown) VH: QVQLVQSGAEVKKPGSSVKVSCKASGGTFSSYAISWVRQAPGQGLEWMGSIIPIFGTANYAQKFQGRVTITADESTSTAYMELSSLRSEDTAVYYCARDKHGRRGYYYYMDVWGKGTTVTVSS VL: EIVLTQSPATLSLSPGERATLSCRASQSVSSYLAWYQQKPGQAPRLLIYDASNRATGIPARFSGSGSGTDFTLTISSLEPEDFAVYYCQQGANAPPRTFGGGTKVEIK	No

The origin of these recorded values is patent US20220251219A1.
